Assay: chemical genetic growth profiling, strain panel (AID 1159580);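 also: tested at 20 µM; growth read once vehicle control cultures reached saturation at 30 °C; 1 = growth at the plate median or of vehicle wells; lower values mean less growth of the strain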
Conditions: S. cerevisiae deletion strains, growth OD, locus YER167W, strain BCK2, active compounds read low
In all, about 5,500 compounds went through this assay and about 2,000 (36%) were called active. Another 18% or so got no clear call; they are omitted. Some of the results follow.
MEASUREMENT_TYPE: normalized growth

MOLECULE | REPORTED_RESULT
CC(C)CC(N(C)C)C1(c2ccc(Cl)cc2)CCC1 (stereo not given) | 0.983
C/C=C(/C)C(=O)O[C@H]1CC[C@@]2(C)[C@@H]3CC[C@H]4[C@]5(O)C[C@H](O)[C@@]6(O)[C@@H](CN7C[C@@H](C)CC[C@H]7[C@@]6(C)O)[C@]5(O)C[C@@]42O[C@]13O | 0.995
O=C(O)/C=C1\CCCc2ccccc2C1O (stereo not given) | 0.998
COc1c(CC(=O)c2cc3c(cc2O)OC(C)(C)C(O)C3)ccc2c1C=CC(C)(C)O2 (stereo not given) | 1
Cc1ccc(S(=O)(=O)NC(=O)NN2CC3CCCC3C2)cc1 (stereo not given) | 1
CC1C(=O)OC2C1CCC1(C)C=CC(=O)C3(C)OC213 (stereo not given) | 1.02
CCC(C)C(NC)C(=O)O (stereo not given) | 0.975
COc1cccc(OC)c1OCCNCC1COc2ccccc2O1 (stereo not given) | 1
COc1ccc2c(c1)c(CC(=O)O)c(C)n2C(=O)c1ccc(Cl)cc1 | 0.995
C/C=C1\[C@H]2C=C(C)C[C@]1(N)c1ccc(=O)[nH]c1C2 | 1.02

###

Experiment: chemical genetic growth profiling, strain panel (AID 1159580);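 also: tested at 20 µM; growth read once vehicle control cultures reached saturation at 30 °C; 1 = growth at the plate median or of vehicle wells; lower values mean less growth of the strain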
Conditions: S. cerevisiae deletion strains, growth OD, locus YNR052C, strain pop2
The whole screen tested about 5,500 compounds, of which about 2,000 (36%) were called active. Another 18% or so got no clear call; they are omitted. Cut-off read from the data, not from the text of the source: active = normalized growth mostly below about 0.91 (no sharp cut-off); inconclusive = no clear call, values can overlap the other calls; inactive = mostly above about 0.92. This is one part of the list.
Outcomes: active, inactive

COMPOUND | CAT
C[C@@H]1C(=O)O[C@H]2[C@H]1CC[C@@]1(C)C=CC(=O)[C@@]3(C)O[C@@]213 | inactive
Nc1ccccc1C(=O)CC(N)C(=O)O (centres undefined) | inactive
C[C@@H]1CC[C@H]2[C@@H](C)C(O)O[C@@H]3O[C@@]4(C)CC[C@@H]1[C@]32OO4 (some centres undefined) | active
CCOC(=O)OC(C)OC(=O)C1N2C(=O)C(NC(=O)[C@H](N)c3ccccc3)C2SC1(C)C (some centres undefined) | inactive
CC(C)(Sc1cc(C(C)(C)C)c(O)c(C(C)(C)C)c1)Sc1cc(C(C)(C)C)c(O)c(C(C)(C)C)c1 | inactive
CCCCCCCCCCCC[C@H](C(=O)O)[C@@H](C)C(=O)O | inactive
C#C[C@]1(OC(C)=O)CCC2C3CCC4=CC(=O)CC[C@@H]4C3CC[C@@]21C (some centres undefined) | inactive
C[C@@H]1CC[C@H]2[C@@H](C)C(=O)O[C@@H]3O[C@@]4(C)CC[C@@H]1[C@]32OO4 | active
Cc1ccc(-c2cc(C(F)(F)F)nn2-c2ccc(S(N)(=O)=O)cc2)cc1 | inactive

###

Test: chemical genetic growth profiling, strain panel (AID 1159580);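 also: tested at 20 µM; growth read once vehicle control cultures reached saturation at 30 °C; 1 = growth at the plate median or of vehicle wells; lower values mean less growth of the strain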
Settings: S. cerevisiae deletion strains, growth OD, locus YOL012C, strain htz1
About 2,000 (36%) of roughly 5,500 compounds were called active. Another 18% or so got no clear call; they are omitted. Cut-off read from the data, not from the text of the source: active = normalized growth mostly below about 0.91 (no sharp cut-off); inconclusive = no clear call, values can overlap the other calls; inactive = mostly above about 0.92. This is one part of the list. Where a SMILES comes first, the peptide text is derived from it. Bridges are numbered along the chain shown (N, C = ends). [ ]: non-standard residue; d: D form. The star is where a group is joined. ξ: configuration not given here. ξDab(CH2SO3H) = NC(CCNCS(=O)(=O)O)C(=O)O; Heptanoyl(6-Me) = CC(C)CCCCC(=O)*; Dab = NCC[CH](N)C(=O)O; For = O=C*
Outcomes: label 1 for active, label 0 for inactive

MOLECULE | CAT
COc1cccc(OC)c1OCCNCC1COc2ccccc2O1 (stereo unspecified) | label 0
COC(=O)Nc1nc2ccc(C(=O)c3ccccc3)cc2[nH]1 | label 0
Nc1c2c(nc3ccccc13)CCCC2 | label 0
CC1C(=O)OC2C1CCC1(C)C=CC(=O)C3(C)OC213 (stereo unspecified) | label 0
CCC(C)C1NC(=O)C(CCNCS(=O)(=O)O)NC(=O)C(NC(=O)C(CCNCS(=O)(=O)O)NC(=O)C(NC(=O)C(CCNCS(=O)(=O)O)NC(=O)CCCCC(C)C)C(C)O)CCNC(=O)C(C(C)O)NC(=O)C(CCNCS(=O)(=O)O)NC(=O)C(CCNCS(=O)(=O)O)NC(=O)C(C(C)CC)NC1=O (stereo unspecified) ({Heptanoyl(6-Me)}-[ξDab(CH2SO3H)]T[ξDab(CH2SO3H)][Dab][ξDab(CH2SO3H)]II[ξDab(CH2SO3H)][ξDab(CH2SO3H)]T; lactam 4-C; configuration not given here) | label 0
C[C@@H]1CC[C@H]2[C@@H](C)C(O)O[C@@H]3O[C@@]4(C)CC[C@@H]1[C@]32OO4 (stereo partly specified) | label 0
COc1ccc2c3c([nH]c2c1)C(C)=NCC3 | label 0
CSCCC(NC=O)C(=O)NC(Cc1ccccc1)C(=O)O (stereo not drawn) (For-Met-Phe-OH; configuration not given here) | label 0
NC(N)=N/N=C/c1c(Cl)cccc1Cl | label 0
CNCc1ccccc1 | label 0
CC(C)=CCCC1(C)C=Cc2c(O)c3c(c(CC=C(C)C)c2O1)OC12C(=CC4CC1C(C)(C)OC2(C/C=C(/C)C(=O)O)C4=O)C3=O (stereo unspecified) | label 0
Clc1ccccc1C(c1ccccc1)(c1ccccc1)n1ccnc1 | label 0
Nc1ccc(S(=O)(=O)Nc2ccnn2-c2ccccc2)cc1 | label 0
NCCC(=O)N[C@@H](Cc1cnc[nH]1)C(=O)O | label 0
CC(=O)NCc1c(I)c(NC(C)=O)c(I)c(C(=O)O)c1I | label 0
COC(=O)C[C@H]1C(C)(C)C2(O)OC34CC2C(=O)[C@]1(C)C3CC[C@]1(C)C4=CC(=O)O[C@H]1c1ccoc1 (stereo partly specified) | label 0
NNc1nncc2ccccc12 | label 0
CC1(C)CC[C@]2(C)CC[C@]3(C)C(=CCC4[C@@]5(C)CC[C@H](O)C(C)(C)C5CC[C@]43C)C2C1 (stereo partly specified) | label 0
O=C(COc1ccc(Cl)cc1)N1CCN(Cc2ccc3c(c2)OCO3)CC1 | label 0
Nc1ccc(S(=O)(=O)c2ccc(N)cc2)cc1 | label 0
Cc1cc(C(C)(C)C)c(O)c(C(C)(C)C)c1 | label 1
Nc1c2ccccc2nc2ccccc12 (tested in a mixture with another compound) | label 1
COC1=C[C@@H]2[C@@H]3Cc4ccc(OC)c(O)c4[C@]2(CCN3C)CC1=O | label 0
Nc1ccc(S(=O)(=O)Nc2cnc3ccccc3n2)cc1 | label 0
COc1cc(N)c(Cl)cc1C(=O)NC1CCN(Cc2ccccc2)CC1 | label 0
Nc1c2c(nc3ccccc13)CCCC2O (stereo unspecified) | label 0
N=C(N)c1ccc(OCCCCCOc2ccc(C(=N)N)cc2)cc1 | label 0
CC(C)(Sc1cc(C(C)(C)C)c(O)c(C(C)(C)C)c1)Sc1cc(C(C)(C)C)c(O)c(C(C)(C)C)c1 | label 0
O=c1oc2cc(O)ccc2s1 | label 0
COC(=O)Nc1nc2ccc(Sc3ccccc3)cc2[nH]1 | label 0
CC(C)=CCCC1(C)C=Cc2c(O)c3c(c(CC=C(C)C)c2O1)OC12C(=CC4CC1C(C)(C)OC2(C/C=C(\C)C(N)=O)C4=O)C3=O (stereo unspecified) | label 0
Cc1cc(O)c2c(c1)Cc1cccc(O)c1C2=O | label 0
COc1cc(C(=O)O[C@H]2CC[C@@]3(C)[C@@H]4CC[C@H]5[C@]6(O)C[C@H](O)[C@@]7(O)[C@@H](CN8C[C@@H](C)CC[C@H]8[C@@]7(C)O)[C@]6(O)C[C@@]53O[C@]24O)cc(OC)c1OC | label 0
CC(C)(Oc1ccc(CCNC(=O)c2ccc(Cl)cc2)cc1)C(=O)O | label 0
C/C=C(/C)C(=O)OC1CCC2(C)C3CCC4C5(O)CC(O)C6(O)C(CN7CC(C)CCC7C6(C)O)C5(O)CC42OC13O (stereo unspecified) | label 0
C/C=C(/C)C(=O)O[C@H]1CC[C@@]2(C)[C@@H]3CC[C@H]4[C@]5(O)C[C@H](O)[C@@]6(O)[C@@H](CN7C[C@@H](C)CC[C@H]7[C@@]6(C)O)[C@]5(O)C[C@@]42O[C@]13O | label 0

Source: PubChem BioAssay AID1159580
